# Tested on: MDA-N
# assay: NCI tumour cell line growth inhibition, 48 h
# key: entry, value: TGI

Entry "COC(=O)C1=C([C@H]2COC(C)(C)O2)[C@H]2C[C@@H]1[C@@H]1OC(C)(C)O[C@@H]12" — recorded TGI = > 100 µM

Field TGI (entry "O=c1oc2ccccc2cc1-c1csc(Nc2cc(Cl)cc(Cl)c2)n1" ) reads > 100 µM

// recorded TGI for N#CC(c1ccccc1)N(CCc1ccccc1)C(=O)c1ccccc1 (stereo not drawn) : > 100 µM

According to the records, this compound C[n+]1c2cc(N)ccc2cc2ccc(N)cc21 (tested in a mixture with another compound) displays TGI of 2.06 µM

Reported TGI of "CNS(=O)(=O)c1ccccc1C(=N)c1ccccc1" : > 100 µM
